The entries below are paired with their reported melting point.

Record excerpt, results attached:
{"COMPOUND": "CCc1cccc(CC)c1N1C(=O)C(Cl)=C(Cl)C1=O [Compound 39]", "melting point": "204.1 to 205.8 °C"}
{"COMPOUND": "Cc1c(N2C(=O)C(Cl)=C(Cl)C2=O)cccc1[N+](=O)[O-] [Compound 42]", "melting point": "168.8 to 169.9 °C"}
{"COMPOUND": "CC(C)CN1C(=O)C=CC1=O [Compound 16]", "melting point": "52.8 to 53.9 °C"}
{"COMPOUND": "Cc1c(Cl)cccc1N1C(=O)C(Cl)=C(Cl)C1=O [Compound 40]", "melting point": "162.3 to 164.1 °C"}

Any idea what melting point was measured for CC1=CC(=O)N(c2cc(Cl)cc(Cl)c2)C1=O [Compound 25] ?
170.8 to 173.2 °C

Also, CC1=CC(=O)N(C2CCCCC2)C1=O [Compound 27] please.
65.6 to 66.5 °C

Also, O=C1C=CC(=O)N1c1cc(F)c(F)c(F)c1 [Compound 15] please.
153.4 to 165.6 °C

Also, O=C1C(Cl)=C(Cl)C(=O)N1C1CCCCC1 [Compound 45] please.
67.2 to 68.5 °C

Also, Cc1cccc(C)c1N1C(=O)C(Cl)=C(Cl)C1=O [Compound 38] please.
200.8 to 201.6 °C

Also, CC(C)CN1C(=O)C(Cl)=C(Cl)C1=O [Compound 44] please.
63.8 to 64.5 °C

Also, CCc1cccc(CC)c1N1C(=O)C=CC1=O [Compound 14] please.
192.8 to 194.1 °C

Also, CCc1cccc(CC)c1N1C(=O)C=C(C)C1=O [Compound 24] please.
195.8 to 197.3 °C

Also, CC1=CC(=O)N(c2c(C)cccc2C)C1=O [Compound 23] please.
190.8 to 192 °C

Also, Cc1cccc(C)c1N1C(=O)C=CC1=O [Compound 13] please.
188.8 to 190.4 °C

Also, Cc1ccc(Cl)cc1N1C(=O)C(Cl)=C(Cl)C1=O [Compound 41] please.
160.1 to 161.4 °C

* * *

The entries below are paired with their reported CC50.
test: Cytotoxicity assay (Alamar Blue); type: cell-based; conditions: human; THP1 cells; concentrations 10–0.0032 μg/mL

Record excerpt, results attached:
{"SMILES_STR": "CCCCN1C(=O)C(Cl)=C(Cl)C1=O", "CC50": "> 10 µg/mL"}
{"SMILES_STR": "O=C1C(Cl)=C(Cl)C(=O)N1c1ccccc1", "CC50": "> 10 µg/mL"}
{"SMILES_STR": "CC1=CC(=O)N(c2cc(Cl)cc(Cl)c2)C1=O", "CC50": "0.8 µg/mL"}
{"SMILES_STR": "O=C1C(Cl)=C(Cl)C(=O)N1c1ccc(Cl)cc1", "CC50": "> 10 µg/mL"}

Any idea what CC50 was measured for Cc1cccc(C)c1N1C(=O)C(Cl)=C(Cl)C1=O ?
> 10 µg/mL

* * *

The entries below are paired with their reported CC50.
assay: Cytotoxicity assay (Alamar Blue); type: cell-based; conditions: human, THP1 cells (human monocytic leukemia), concentrations 10–0.0032 μg/mL

Record excerpt, results attached:
{"SMILES_STR": "CC(C)CN1C(=O)C(Cl)=C(Cl)C1=O", "MEASURED_ATTRIBUTE": "CC50", "READOUT_VALUE": "> 10 µg/mL"}
{"SMILES_STR": "CC1=CC(=O)N(C2CCCCC2)C1=O", "MEASURED_ATTRIBUTE": "CC50", "READOUT_VALUE": "7.15 µg/mL"}
{"SMILES_STR": "O=C1C=CC(=O)N1c1ccccc1", "MEASURED_ATTRIBUTE": "CC50", "READOUT_VALUE": "> 10 µg/mL"}
{"SMILES_STR": "O=C1C=CC(=O)N1c1cc(F)c(F)c(F)c1", "MEASURED_ATTRIBUTE": "CC50", "READOUT_VALUE": "> 10 µg/mL"}
{"SMILES_STR": "O=C1C(Cl)=C(Cl)C(=O)N1c1ccc(F)cc1", "MEASURED_ATTRIBUTE": "CC50", "READOUT_VALUE": "> 10 µg/mL"}

Pending compound:
Any idea what CC50 was measured for CCc1cccc(CC)c1N1C(=O)C=CC1=O ?
3.89 µg/mL

Cited source: paper PMC6278306
